# System: BDF1 mice, P388 leukemia ip, median survival T/C
# protocol details: NCI In Vivo Anticancer Drug Screen. Data for tumor model P388 Leukemia (intraperitoneal) in B6D2F1 (BDF1) mice
# conditions: endpoint: median survival time; dose: 100.0 mg/kg/injection; schedule: Q04DX003 (ip); vehicle: water; higher = longer survival
Inconclusive results and toxic doses are left out.
Known T/C of a selection of molecules

A selection of reference data follows.
query: Entry under review: COc1ccc(CN2CC(C)NC(C)C2)cc1 (centres undefined) . Reported T/C?
result: 99 % of control

query: Check CCOc1nc(SCC)ncc1C too.
result: 99 % of control

query: Check CC[N+](CC)(CC)CCC[N+](CC)(CC)CC too.
result: 109 % of control

Now look at this entry.
query: Entry under review: CCN(CC)CCCC(C)NC(=O)c1cc(=O)[nH]c(=O)[nH]1 (centres undefined) . Reported T/C?
result: 100 % of control

----------
# Tested on: BDF1 mice, P388 leukemia ip, median survival T/C
# protocol details: NCI In Vivo Anticancer Drug Screen. Data for tumor model P388 Leukemia (intraperitoneal) in B6D2F1 (BDF1) mice
# conditions: endpoint: median survival time; dose: 200.0 mg/kg/injection; schedule: Q01DX009 (ip); vehicle: saline with Tween-80
Toxic doses and inconclusive results are not listed. The calls were made as follows: active = survival T/C of 150% or more; inactive = T/C below 125% in these data.
Outcome (select one): active, inactive

query: Dear colleague, could you share the recorded outcome for CCCOn1nnc2cc(Cl)ccc21 when you have a moment?
result: inactive

query: Check Clc1nc2nc(C3CC3)[nH]c2nc1Cl too.
result: inactive

query: Check CC(Oc1ccccc1-c1ccccc1)C(=O)N(C)C (stereo unspecified) too.
result: inactive

Further cases:
query: Dear colleague, could you share the recorded outcome for CCCCNC(C)(C)C(SSSC(c1cccs1)C(C)(C)NCCCC)c1cccs1 (stereo unspecified) when you have a moment?
result: inactive

query: Check Cc1cc(NC(=O)c2ccc(C(=O)Nc3ccc(C4=NCCN4)c(C)c3)cc2)ccc1C1=NCCN1 too.
result: active

query: Check O=C(N=Nc1c(O)[nH]c2c(Cl)cc(Cl)cc12)C(=O)Nc1cccc(C(F)(F)F)c1 too.
result: inactive

query: Check Cn1c(O)c(N=NC(N)=S)c2ccccc21 too.
result: inactive

query: Check CC(=O)OCC1OC(N=[N+]=[N-])C(OC(C)=O)C(OC(C)=O)C1OC(C)=O (stereo unspecified) too.
result: inactive

query: Check Cc1ccc2c(c1)C(=O)CC=C(C(=O)O)N2 too.
result: inactive

query: Check COC(=O)CC(C)Cc1ccc(OC)c(OC)c1 (stereo unspecified) too.
result: inactive

query: Check COc1cc([N+](=O)[O-])cc(OC)c1OC too.
result: inactive

query: Check O=[N+]([O-])c1ccc(N=Nc2c(O)ccc3ccccc23)cc1 too.
result: inactive

query: Check O=C1/C(=C\c2ccc(Cl)cc2Cl)SC(=S)N1Cc1ccco1 too.
result: inactive

query: Check CCOC(=O)CCN(CC(=O)OCC)C(C)C too.
result: inactive

query: Check N#CSCc1nc2ccc(Cl)cc2c(-c2ccccc2)[n+]1[O-] too.
result: inactive

query: Check CCC[n+]1ccc(/C=N\NC(N)=S)c2ccccc21 too.
result: inactive

----------
# Tested on: BDF1 mice, P388 leukemia ip, median survival T/C
# protocol details: NCI In Vivo Anticancer Drug Screen. Data for tumor model P388 Leukemia (intraperitoneal) in B6D2F1 (BDF1) mice
# conditions: endpoint: median survival time; dose: 100.0 mg/kg/injection; schedule: Q01DX009 (ip); vehicle: Klucel (hydroxypropylcellulose) (HPC); higher = longer survival
Toxic doses and inconclusive results are not listed.
measured property: T/C

A selection of reference data follows.
query: Entry under review: O=S1(=O)CCN(Cc2ccccc2)CC1 . Reported T/C?
result: 96 % of control

query: Check CC(=O)OCCC/C(=C/c1cc2ccccc2c2ccccc12)[N+](=O)[O-] too.
result: 115 % of control

query: Check CCOC(=O)C1CCC(C(=O)OCC)N1c1ccc(C=O)cc1 (configuration not stated) too.
result: 122 % of control

query: Check O=C(NCCO)c1cc2ccccc2cc1O too.
result: 90 % of control

query: Check O=[N+]([O-])c1ccc(N=N/C(Cc2ccccc2)=N\Nc2ccccc2)cc1 too.
result: 100 % of control

Further cases:
query: Entry under review: Cc1cc(C)c(C(=O)C=O)c(C)c1 . Reported T/C?
result: 110 % of control

query: Check CCOC(=O)C(C(=O)OCC)C1c2ccccc2C(=NO)c2ccccc21 (configuration not stated) too.
result: 100 % of control
